pKi: −log10 of the molar value.
pKi for Substance-K receptor (Homo sapiens) - collated from the literature.
reportedMetric: pKi

Examples with answers:
CC(=O)NC1(c2ccccc2)CCN(CCC(CNCCc2ccccc2)c2ccc(Cl)c(Cl)c2)CC1 (stereo not drawn)    7.89
N[C@@H]1CCCC[C@H]1NC(=O)[C@@H]1C[C@@H](NC(=O)[C@@H](Cc2ccccc2)NC(=O)C2(NC(=O)c3cc4ccccc4s3)CCCCC2)CN1    10.20
O=C1CCC(CCN2CC(N3CCC(F)CC3)C2)(c2ccc(Cl)c(Cl)c2)CN1C1(C2CC2)CCCC1 (stereo not drawn)    10.00

[A] CC(C)N1CCC(CNC(=O)[C@@H](Cc2ccccc2)NC(=O)C2(NC(=O)c3cc4ccccc4s3)CCCC2)CC1
[B] CO/N=C(\CN(C)C(=O)c1ccc2c(c1)OCO2)[C@H](CCN1CCC(N2CCCNC2=O)CC1)c1ccc(Cl)c(Cl)c1
Sorting ascending by pKi, which comes first: A or B ? State the label of the item chosen. A
